study-system: T1, GST-obscurin-PH (human, UniProt Q5VST9 5895-6004)
T1 construct: domain: Pleckstrin Homology (PH) domain; Expressed in bacteria, about 37 kDa; also called GST-obscurin-PH domain; recombinant obscurin-PH domain fused to GST; not shown: glutathione-S-transferase (GST) tag encoded by the PGEX vector (GE Healthcare)
T1 sequence (looked up): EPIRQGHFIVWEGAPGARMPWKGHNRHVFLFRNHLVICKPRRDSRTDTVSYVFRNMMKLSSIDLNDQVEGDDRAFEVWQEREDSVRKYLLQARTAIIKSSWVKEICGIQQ
run-description: SPR, Biacore 3000; GST-obscurin-PH immobilized on CM5 chip, HIS-PI3K/p85-SH3 as analyte at 8-250 nM; 1:1 Langmuir model
Procedure: Surface plasmon resonance was performed using a BiaCore 3000 instrument as described (6, 19, 21). […] For each analyte concentration, association was measured for 180 sec and dissociation was measured over another 180 sec. Data were evaluated with the 1:1 Langmuir model and the Heterogeneous Ligand model (BIAevaluation Software 3.1, Biacore). […]
pKd: −log10 of the molar value.
observation-type: pKd

1) HIS-PI3K/p85-SH3 (other, human, UniProt O00459 4-80, looked up, domain: Src Homology 3 (SH3) domain; Expressed in bacteria, about 10 kDa; also called His-tagged PI3K/p85-SH3 protein; HIS-PI3K-p85/SH3 domain; not shown: His tag and vector-encoded residues of pET-30a(+)) PEGFQYRALYPFRRERPEDLELLPGDVLVVSRAALQALGVAEGGERCPQSVGWMPGLNERTRQRGDFPGTYVEFLGP; ~7.30
